biological target: DNA dC->dU-editing enzyme APOBEC-3G (Homo sapiens); experiment: APOBEC3G DNA deaminase inhibitors, primary screen, biochemical, fluorescence, single-stranded DNA substrate, uHTS (AID 493012); details: recombinant A3G, ssDNA deamination FAM/TAMRA fluorescence; at 20 µM;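 further: plate controls were DMSO wells with A3G for no effect and wells lacking A3G enzyme for full effect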
The campaign covered roughly 330,000 compounds. About 930 (0.28%) were called active.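 How the source made its calls: active means inhibition of at least 40% at 20 µM, with no more than 30% in the related APOBEC3A deaminase screen; inactive means the rest.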 Shown is part of a subset that was picked to be rich in actives.
Respond using exactly one of the listed classes: 1 = active, 0 = inactive

Ask | I would be grateful if you could indicate the recorded call for COc1ccc(OCc2nnc3n2N=C(c2ccccc2)C(CC(=O)O)S3)cc1 (stereo not drawn) .
Reply | 1

Ask | # iterate: COc1cccc(OCc2nnc3n2N=C(c2ccccc2)C(CC(=O)O)S3)c1 (stereo not drawn)
Reply | 0

Ask | # iterate: Nc1nonc1-n1nnc(C(=O)N/N=C/c2ccc(Cl)cc2)c1-c1ccc2c(c1)OCO2
Reply | 0
